# subjectOfTest: BRDT-BD1 (Homo sapiens, UniProt Q58F21)
# testProtocol: AlphaScreen competition assay with biotinylated JQ1
# Type: binding
# Set-up: the first bromodomain of BRDT (BRDT-BD1); made in house; host or cells: bacteria (pET15b or pET28b vector)
# measurementContext: AlphaScreen, biotinylated JQ1 10 nM, His-bromodomain 10 nM
endpointLabel: pIC50
Numbers only, as −log10 of the molar value.

Here are 4 molecules together with their reported answers.
Cc1cc(=O)[nH]c2ccc(CC(=O)N3CCC(CCNC(=O)c4cc5ccccc5cn4)CC3)cc12 ... 6.94
Cc1ccc(-c2ccc(C(=O)NC(C)CC3CCN(C(=O)Cc4ccc5[nH]c(=O)cc(C)c5c4)CC3)nc2)c(C)c1 (centres unmarked) ... 7.51
Cc1cc(=O)[nH]c2ccc(CC(=O)N3CCC(CCNC(=O)c4ccc5ccccc5n4)CC3)cc12 ... 7.09
Cc1cc(=O)[nH]c2ccc(CC(=O)N3CCN(CCNC(=O)c4ccccn4)CC3)cc12 ... 5.28

Switching to the query record.
Item under review: CNC(=O)C(CC1CCN(C(=O)Cc2ccc3[nH]c(=O)cc(C)c3c2)CC1)NC(=O)c1ccccn1 (centres unmarked) . Reported pIC50?
7.69

###

# subjectOfTest: BRD3-BD1 (Homo sapiens)
# Construct: two similar tandem bromodomains (BD1 and BD2)
# Sequence (Q15059 34-140 limits assumed): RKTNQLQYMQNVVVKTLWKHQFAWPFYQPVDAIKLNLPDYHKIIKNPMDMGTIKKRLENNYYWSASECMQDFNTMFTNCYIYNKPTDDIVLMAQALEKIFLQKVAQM
# testProtocol: BromoKdELECT assay
# measurementContext: BromoKdELECT
endpointLabel: pKd
One number for each entry, as −log10 of the molar value.

Item under review: CNC(=O)[C@@H](CC1CCN(C(=O)Cc2ccc3[nH]c(=O)cc(C)c3c2)CC1)NC(=O)c1ccc(-c2ccc(C)cc2C)cn1 . Reported pKd?
9.89

###

Record form. Attribute: BRDT-BD1 vs. BRDT-BD2 fold (BRDT-BD1 selectivity). Fill in for each entry.
# subjectOfTest: BRDT-BD1 (Homo sapiens, UniProt Q58F21)
# testProtocol: AlphaScreen competition assay with biotinylated JQ1
# Type: binding
# Parameters: the first bromodomain of BRDT (BRDT-BD1); made in house; host or cells: bacteria (pET15b or pET28b vector)
# measurementContext: ratio of AlphaScreen IC50 values; NE = not efficient
Give bare numbers, in fold.

Here are 3 compounds together with their reported answers.
CNC(=O)C(CC1CCN(C(=O)Cc2ccc3[nH]c(=O)cc(C)c3c2)CC1)NC(=O)c1ccccn1 (stereo not drawn) ... 960
Cc1cc(=O)[nH]c2ccc(CC(=O)N3CCC(CCNC(=O)c4ccccn4)CC3)cc12 ... 192
Cc1ccc(-c2ccc(C(=O)NCCC3CCN(C(=O)Cc4ccc5[nH]c(=O)cc(C)c5c4)CC3)nc2)c(C)c1 ... 2012

For each entry beneath this line, provide reported BRDT-BD1 vs. BRDT-BD2 fold (BRDT-BD1 selectivity).
1. Cc1cc(=O)[nH]c2ccc(CC(=O)N3CCC(CCNC(=O)c4ccccc4)CC3)cc12
2. Cc1cc(=O)[nH]c2ccc(CC(=O)N3CCN(CCNC(=O)c4ccccn4)CC3)cc12
3. Cc1ccc(-c2ccc(C(=O)NC(C)CC3CCN(C(=O)Cc4ccc5[nH]c(=O)cc(C)c5c4)CC3)nc2)c(C)c1 (stereo not drawn)

70
13.8
756

###

# subjectOfTest: BRDT-BD1 (Homo sapiens)
# testProtocol: AlphaScreen competition assay with biotinylated JQ1
# Type: binding
# Design: the first bromodomain of BRDT (BRDT-BD1); made in house; host or cells: bacteria (pET15b or pET28b vector)
endpointLabel: IC50 (nM)
One number for each entry, in nM.

Here are 5 molecules together with their reported answers.
CNC(=O)[C@@H](CC1CCN(C(=O)Cc2ccc3[nH]c(=O)cc(C)c3c2)CC1)NC(=O)c1ccc(-c2ccc(C)cc2C)cn1 [CDD-787] ... 2.1
Cc1cc(=O)[nH]c2ccc(CC(=O)N3CCC(CCNC(=O)c4ccccc4)CC3)cc12 [CDD-779] ... 148
Cc1cc(=O)[nH]c2ccc(CC(=O)N3CCC(CCNC(=O)c4nccc5ccccc45)CC3)cc12 [CDD-853] ... 638
CNC(=O)[C@@H](CC1CCN(C(=O)Cc2ccc3[nH]c(=O)cc(C)c3c2)CC1)NC(=O)c1ccc(-c2ccc(Cl)c(F)c2)cn1 [CDD-982] ... 4.7
Cc1cc(=O)[nH]c2ccc(CC(=O)N3CCC(CCNC(=O)c4ccccn4)CC3)cc12 [CDD-767] ... 35.4

For each entry beneath this line, provide reported IC50.
1. Cc1ccc(-c2ccc(C(=O)NCCC3CCN(C(=O)Cc4ccc5[nH]c(=O)cc(C)c5c4)CC3)nc2)c(C)c1 [CDD-813]
2. CNC(=O)C(CC1CCN(C(=O)Cc2ccc3[nH]c(=O)cc(C)c3c2)CC1)NC(=O)c1ccc(-c2ccc(C)cc2C)cn1 (centres unmarked) [CDD-724]
3. CNC(=O)[C@@H](CC1CCN(C(=O)Cc2ccc3[nH]c(=O)cc(C)c3c2)CC1)NC(=O)c1ccc(-c2ccc(Cl)cc2)cn1 [CDD-981]

33.7
5.7
5.1

###

# testProtocol: Metabolic stability assay in liver microsomes (HLM)
# Type: in vitro ADME
# measurementContext: human liver microsomes 0.5 mg protein/mL, compound 2.0 μM, NADPH 1.0 mM; read-out: HLM t1/2 (half-life)
endpointLabel: half-life at 2 μM (min)
One number for each entry, in min.

Item under review: CNC(=O)[C@@H](CC1CCN(C(=O)Cc2ccc3[nH]c(=O)cc(C)c3c2)CC1)NC(=O)c1ccc(-c2ccc(C)cc2C)cn1 . Reported half-life at 2 μM?
33

###

Record form. Attribute: IC50. Fill in for each entry.
# subjectOfTest: BRD4-BD2 (Homo sapiens, UniProt O60885)
# Construct: two similar tandem bromodomains (BD1 and BD2); made in house; host or cells: bacteria (pET15b or pET28b vector)
# testProtocol: AlphaScreen competition assay with biotinylated JQ1
# Assay type: binding
# measurementContext: AlphaScreen, biotinylated JQ1 10 nM, His-bromodomain 10 nM; NE = not efficient; read-out: BRD4-BD2 IC50
Include the unit after the number when you answer.

Here are 2 compounds together with their reported answers.
CNC(=O)C(CC1CCN(C(=O)Cc2ccc3[nH]c(=O)ccc3c2)CC1)NC(=O)c1ccc(-c2ccccc2)cn1 (stereo not drawn) [CDD-986] ... 16.7 µM
Cc1ccc(-c2ccc(C(=O)NC(C)CC3CCN(C(=O)Cc4ccc5[nH]c(=O)cc(C)c5c4)CC3)nc2)c(C)c1 (stereo not drawn) [CDD-906] ... 20 µM

Switching to the query record.
# get_value(readout= IC50, system= BRD4-BD2 (Homo sapiens, UniProt O60885)) for CNC(=O)C(CC1CCN(C(=O)Cc2ccc3[nH]c(=O)cc(C)c3c2)CC1)NC(=O)c1ccccn1 (stereo not drawn) [CDD-784]
32.6 µM

###

# subjectOfTest: BRDT-BD2 (Homo sapiens)
# Construct: two similar tandem bromodomains (BD1 and BD2); made in house; host or cells: bacteria (pET15b or pET28b vector)
# testProtocol: AlphaScreen competition assay with biotinylated JQ1
# Type: binding
# measurementContext: read-out: BRDT-BD2 IC50
Under this convention, 1 denotes IC50 strictly below 10 µM and -1 denotes IC50 at or above 10 µM.

CNC(=O)[C@@H](CC1CCN(C(=O)Cc2ccc3[nH]c(=O)cc(C)c3c2)CC1)NC(=O)c1ccc(-c2ccc(Cl)c(F)c2)cn1 ... -1
Cc1cc(=O)[nH]c2ccc(CC(=O)N3CCC(CCNC(=O)c4ccccn4)CC3)cc12 ... 1
Cc1ccc(-c2ccc(C(=O)NCCC3CCN(C(=O)Cc4ccc5[nH]c(=O)cc(C)c5c4)CC3)nc2)c(C)c1 ... -1
CNC(=O)[C@@H](CC1CCN(C(=O)Cc2ccc3[nH]c(=O)cc(C)c3c2)CC1)NC(=O)c1ccc(-c2ccc(Cl)cc2)cn1 ... -1
CNC(=O)C(CC1CCN(C(=O)Cc2ccc3[nH]c(=O)cc(C)c3c2)CC1)NC(=O)c1ccc(-c2ccc(C)cc2C)cn1 (stereo not drawn) ... -1

# strict comparison: is reported IC50 < 10 µM? input = Cc1cc(=O)[nH]c2ccc(CC(=O)N3CCC(CCNC(=O)c4ccccc4)CC3)cc12
-1

###

# subjectOfTest: BRD2-BD1 (Homo sapiens, UniProt P25440)
# Construct: two similar tandem bromodomains (BD1 and BD2); purchased Eurofins DiscoverX (Fremont, CA); host or cells: E. coli host derived from the BL21 strain, T7 phage
# Sequence (P25440 74-180 limits assumed): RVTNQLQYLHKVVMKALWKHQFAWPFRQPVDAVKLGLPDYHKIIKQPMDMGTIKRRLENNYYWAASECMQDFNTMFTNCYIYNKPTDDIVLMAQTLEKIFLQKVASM
# testProtocol: BromoKdELECT assay
# Type: binding
# measurementContext: BromoKdELECT; read-out: IC50 against BRD2-BDT1
endpointLabel: pIC50
Give bare numbers, as −log10 of the molar value.

Item under review: CNC(=O)[C@@H](CC1CCN(C(=O)Cc2ccc3[nH]c(=O)cc(C)c3c2)CC1)NC(=O)c1ccc(-c2ccc(C)cc2C)cn1 . Reported pIC50?
9.59

Reference for the values: paper PMC9295786
